Target: HLA-A*0202 (human)
Experiment: inhibition of 125I-labelled probe peptide binding to purified HLA, gel filtration
assay readout: IC50 (nM)
Answers are plain numbers, in nM.

Can you share its IC50? I mean this binder: SLQCVSLHLV (modifications not checked) [Peptide 1418.52 (HuK2.170.V10) …]
6.3
